Let's look at some binders and their measured pIC50.
Target: T1, Fusion protein of extracellular domain of human TIGIT and human IgG1 Fc fragment (human TIGIT ECD-hFc) (human)
T1 construct: The entry includes the signal peptide (limits not recoverable) and the human IgG1 Fc
T1 sequence (chain, as listed by the source limits assumed): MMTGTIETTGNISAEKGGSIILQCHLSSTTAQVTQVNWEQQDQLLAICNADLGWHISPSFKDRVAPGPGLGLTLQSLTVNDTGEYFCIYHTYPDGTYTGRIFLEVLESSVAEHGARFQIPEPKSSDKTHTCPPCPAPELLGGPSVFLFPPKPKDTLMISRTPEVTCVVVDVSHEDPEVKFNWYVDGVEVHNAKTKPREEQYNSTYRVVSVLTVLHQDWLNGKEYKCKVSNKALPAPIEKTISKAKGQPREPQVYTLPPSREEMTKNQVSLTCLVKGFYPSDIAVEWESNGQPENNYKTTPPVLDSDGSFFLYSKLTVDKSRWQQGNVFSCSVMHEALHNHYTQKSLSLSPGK
Assay: blocking of TIGIT ECD-hFc binding to CHO-K1 CD155 cells
pIC50 (log units): -log10 of the concentration in mol/L.

[[record]]
binder = "TIGIT-CHI-002 (antibody, V domains shown, Human-mouse chimeric antibody) VH: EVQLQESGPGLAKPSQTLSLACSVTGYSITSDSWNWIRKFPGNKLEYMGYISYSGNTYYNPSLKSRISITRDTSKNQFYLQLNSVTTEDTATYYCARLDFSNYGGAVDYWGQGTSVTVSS VL: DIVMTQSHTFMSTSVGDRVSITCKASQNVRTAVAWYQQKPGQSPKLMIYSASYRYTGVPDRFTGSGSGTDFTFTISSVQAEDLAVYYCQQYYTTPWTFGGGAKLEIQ"
recorded_endpoint = "pIC50"
value_measured = 9.25


Now look at this entry.
Field pIC50 (entry TIGIT-006-H4L1 (antibody, V domains shown, Humanized anti-TIGIT antibody) VH: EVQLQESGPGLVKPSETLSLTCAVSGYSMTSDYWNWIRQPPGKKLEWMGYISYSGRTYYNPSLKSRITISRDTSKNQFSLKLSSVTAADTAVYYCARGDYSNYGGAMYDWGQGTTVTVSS VL: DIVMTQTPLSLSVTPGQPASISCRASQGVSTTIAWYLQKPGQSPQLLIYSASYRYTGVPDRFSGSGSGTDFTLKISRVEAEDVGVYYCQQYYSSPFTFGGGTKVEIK ) reads 9.15
